Measured values drawn from patent US6545002B1 for this set.

Recorded melting point for the following compounds

molecule: CCCn1c(=O)c2[nH]c(-c3ccc(OCC(=O)NC(c4ccccc4)c4ccccc4)cc3)nc2n(CCC)c1=O
melting point: 269 to 270 °C
--
molecule: CCCn1c(=O)c2[nH]c(-c3ccc(OCC(=O)Nc4cccc(C(C)=O)c4)cc3)nc2n(CCC)c1=O
melting point: 269 to 270 °C
--
molecule: O=C(O)COc1ccc(-c2nc3c([nH]2)c(=O)n(Cc2ccccc2)c(=O)n3Cc2ccccc2)cc1
melting point: > 310 °C
--
molecule: CCCn1c(=O)c2[nH]c(-c3ccc(OCC(=O)NCc4ccccc4)cc3)nc2n(CCC)c1=O
melting point: 268 °C
--
molecule: CCCn1c(=O)c2[nH]c(-c3ccc(OCC(=O)Nc4ccc(F)cc4)cc3)nc2n(CCC)c1=O
melting point: 298 °C
--
molecule: CC(=O)c1ccccc1NC(=O)COc1ccc(-c2nc3c([nH]2)c(=O)n(Cc2ccccc2)c(=O)n3Cc2ccccc2)cc1
melting point: 284 °C
--
molecule: CCCn1c(=O)c2[nH]c(-c3ccc(OCC(=O)Nc4ccccc4)cc3)nc2n(CCC)c1=O
melting point: 301 to 302 °C
--
molecule: CCCn1c(=O)c2[nH]c(-c3ccc(/C=C/C(=O)Nc4ccccc4C(C)=O)cc3)nc2n(CCC)c1=O
melting point: 281 to 283 °C
--
molecule: CCCn1c(=O)c2[nH]c(-c3ccc(OCC(=O)NN4C(=O)C(C)=C(C)C4=O)cc3)nc2n(CCC)c1=O
melting point: > 310 °C
--
molecule: CCCn1c(=O)c2[nH]c(-c3ccc(OCC(=O)Nc4ccc(C(F)(F)F)cc4)cc3)nc2n(CCC)c1=O
melting point: > 310 °C
--
molecule: CCCn1c(=O)c2[nH]c(-c3ccc(/C=C/C(=O)NN4C(=O)C(C)=C(C)C4=O)cc3)nc2n(CCC)c1=O
melting point: 302 to 303 °C
--
molecule: CCCn1c(=O)c2[nH]c(-c3ccc(OCC(=O)Nc4ccc(C(=O)NC)cc4)cc3)nc2n(CCC)c1=O
melting point: > 310 °C
--
molecule: CCCn1c(=O)c2[nH]c(-c3ccc(OCC(=O)Nc4ccccc4C(C)=O)cc3)nc2n(CCC)c1=O
melting point: 294 °C
